System: cat flea (Ctenocephalides felis)
protocol summary: Ctenocephalides felis adulticide assay: single dose screen on treated glass surface (% mortality at 1.26 μg/cm^2, 24 hours)
Format: in vivo
experimental context: in vivo
A collection of molecules and their measured Ctenocephalides felis Mortality (%) 24 h
Give the number; % is assumed, so skip it.

Query Cc1ccccc1Oc1cc(C#N)ccc1NS(=O)(=O)C(F)(F)F yields Ctenocephalides felis Mortality (%) 24 h of 5

Query COc1ccc(Oc2cc(Cl)ccc2NS(=O)(=O)C(F)(F)F)cc1 yields Ctenocephalides felis Mortality (%) 24 h of 24

Query CC(C)c1ccccc1Oc1cc(Cl)ccc1NS(=O)(=O)C(F)(F)F yields Ctenocephalides felis Mortality (%) 24 h of 75

Query N#Cc1ccc(NS(=O)(=O)C(F)(F)F)c(Oc2ccccc2F)c1 yields Ctenocephalides felis Mortality (%) 24 h of 9

Query CC(C)(C)c1ccccc1Oc1cc(Cl)ccc1NS(=O)(=O)C(F)(F)F yields Ctenocephalides felis Mortality (%) 24 h of 88

Query CCOCN(c1ccc(Cl)cc1Oc1ccccc1F)S(=O)(=O)C(F)(F)F yields Ctenocephalides felis Mortality (%) 24 h of 9

Query CN(c1ccc(Cl)cc1Oc1ccccc1F)S(=O)(=O)C(F)(F)F yields Ctenocephalides felis Mortality (%) 24 h of 20

Query COCN(c1ccc(Cl)cc1Oc1ccc(Cl)cc1Cl)S(=O)(=O)C(F)(F)F yields Ctenocephalides felis Mortality (%) 24 h of 100

Query O=S(=O)(Nc1ccccc1Nc1ccccc1)C(F)(F)F yields Ctenocephalides felis Mortality (%) 24 h of 88

Query N#Cc1ccc(Oc2cc(Cl)ccc2NS(=O)(=O)C(F)(F)F)cc1 yields Ctenocephalides felis Mortality (%) 24 h of 6

Query O=S(=O)(Nc1cc(C(F)(F)F)c(Cl)cc1Oc1ccc(Cl)cc1Cl)C(F)(F)F yields Ctenocephalides felis Mortality (%) 24 h of 4

Query Cc1cccc(Oc2cc(Cl)ccc2NS(=O)(=O)C(F)(F)F)c1C yields Ctenocephalides felis Mortality (%) 24 h of 59

Query O=S(=O)(Nc1ccc(Cl)cc1[S+]([O-])c1ccc(Cl)cc1)C(F)(F)F (stereo not drawn) yields Ctenocephalides felis Mortality (%) 24 h of 3

Query O=S(=O)(Nc1ccc(Oc2ccc(Cl)cc2Cl)c(F)c1)C(F)(F)F yields Ctenocephalides felis Mortality (%) 24 h of 4

Query CCOCN(c1cccc(Oc2ccccc2)c1)S(=O)(=O)C(F)(F)F yields Ctenocephalides felis Mortality (%) 24 h of 57

Query CC(C)=CCN(c1ccc(Cl)cc1Oc1ccccc1F)S(=O)(=O)C(F)(F)F yields Ctenocephalides felis Mortality (%) 24 h of 90

Query CCCC(=O)OCN(c1ccc(Cl)cc1Oc1ccccc1F)S(=O)(=O)C(F)(F)F yields Ctenocephalides felis Mortality (%) 24 h of 6

Query N#Cc1ccc(NS(=O)(=O)C(F)(F)F)c(Oc2cccc(C(F)(F)F)c2)c1 yields Ctenocephalides felis Mortality (%) 24 h of 5

* * *

System: cat flea (Ctenocephalides felis)
protocol summary: Ctenocephalides felis adulticide assay: single dose screen on treated glass surface (% mortality at 1.26 μg/cm^2, 24 hours)
Type: in vivo
experimental context: in vivo
quantity measured: Ctenocephalides felis Mortality (%) 24 h
Provide a numeric answer, followed by its unit.

>  <compound>
CC(C)(C)C(=O)OCN(c1cccc(Oc2ccccc2)c1)S(=O)(=O)C(F)(F)F [m5]

>  <target>
cat flea (Ctenocephalides felis)

>  <Ctenocephalides felis Mortality (%) 24 h>
72%

$$$$
>  <compound>
COCN(c1ccc(Cl)cc1Oc1ccccc1F)S(=O)(=O)C(F)(F)F [Compound 79]

>  <target>
cat flea (Ctenocephalides felis)

>  <Ctenocephalides felis Mortality (%) 24 h>
60%

$$$$
>  <compound>
O=S(=O)(Nc1cc(C(F)(F)F)ccc1Oc1ccc(Cl)cc1Cl)C(F)(F)F [Compound 10]

>  <target>
cat flea (Ctenocephalides felis)

>  <Ctenocephalides felis Mortality (%) 24 h>
38%

$$$$
>  <compound>
O=S(=O)(Nc1ccc(Oc2ccc(Cl)cc2Cl)c(C(F)(F)F)c1)C(F)(F)F [p9]

>  <target>
cat flea (Ctenocephalides felis)

>  <Ctenocephalides felis Mortality (%) 24 h>
44%

$$$$

Consider the additional compound presented here.
Query N#Cc1ccc(NS(=O)(=O)C(F)(F)F)c(Oc2ccc(Cl)cc2)c1 [Compound 51] yields Ctenocephalides felis Mortality (%) 24 h of 10%

* * *

Test system: cat flea (Ctenocephalides felis)
protocol summary: Ctenocephalides felis adulticide assay: dose response on treated glass surface (LC50, 24 hours)
Type: in vivo
experimental context: adult cat fleas, 24 h mortality, probit analysis
quantity measured: Ctenocephalides felis LC50 (μg/cm^2)
Give the number; μg/cm^2 is assumed, so skip it.

>  <compound structure string>
O=S(=O)(Nc1ccc(Cl)cc1Sc1ccccc1F)C(F)(F)F

>  <target>
cat flea (Ctenocephalides felis)

>  <units symbol>
μg/cm^2

>  <Ctenocephalides felis LC50>
0.59

$$$$
>  <compound structure string>
Cc1ccccc1Oc1cc(Cl)ccc1NS(=O)(=O)C(F)(F)F

>  <target>
cat flea (Ctenocephalides felis)

>  <units symbol>
μg/cm^2

>  <Ctenocephalides felis LC50>
0.12

$$$$
>  <compound structure string>
O=S(=O)(Nc1ccc(Cl)cc1Sc1ccc(F)cc1)C(F)(F)F

>  <target>
cat flea (Ctenocephalides felis)

>  <units symbol>
μg/cm^2

>  <Ctenocephalides felis LC50>
0.13

$$$$

Query O=S(=O)(Nc1ccc(Cl)cc1Oc1cccc(F)c1)C(F)(F)F yields Ctenocephalides felis LC50 of 0.73

Query O=S(=O)(Nc1cc(C(F)(F)F)ccc1Oc1ccc(F)cc1)C(F)(F)F yields Ctenocephalides felis LC50 of 0.71

Query CCc1ccccc1Oc1cc(Cl)ccc1NS(=O)(=O)C(F)(F)F yields Ctenocephalides felis LC50 of 0.75

* * *

Test system: Brown Dog Tick (Rhipicephalus sanguineus)
protocol summary: Topical application on brown dog ticks, single dose screen (% mortality at 24 hours)
Format: in vivo
experimental context: adult brown dog ticks, topical 1 μL in acetone on abdomen, single dose 10 μg per tick
Procedure: d) Topical Application On Brown Dog Ticks (Rhipicephalus sanguineus) The aim of the test is to determine the presence of significant acaricidal activity in sample compounds or formulations when applied topically on brown dog ticks. […] Test compounds (formulations or active ingredients) were stored in a refrigerator (5±1° C.) unless otherwise specified. […] Mortality resulting from the treatments was recorded at 24 hours. […]
Respond with criterion met for Rhipicephalus sanguineus Mortality (%) 24 h values of 80% and above, criterion not met for values below.

Examples from the recorded data:
>  <compound structure string>
O=S(=O)(Nc1cccc(Oc2ccccc2)c1)C(F)(F)F

>  <label value>
criterion not met

$$$$
>  <compound structure string>
O=S(=O)(Nc1ccc(Cl)cc1Oc1ccccc1F)C(F)(F)F

>  <label value>
criterion met

$$$$
>  <compound structure string>
O=S(=O)(Nc1ccc(Cl)cc1Oc1ccccc1C(F)(F)F)C(F)(F)F

>  <label value>
criterion not met

$$$$

Is it the case that O=S(=O)(Nc1ccc(Cl)cc1Oc1ccc(Cl)cc1Cl)C(F)(F)F has Rhipicephalus sanguineus Mortality (%) 24 h reaching or exceeding 80%? criterion not met

Is it the case that CCOCN(c1ccc(Cl)cc1Oc1ccc(Cl)cc1Cl)S(=O)(=O)C(F)(F)F has Rhipicephalus sanguineus Mortality (%) 24 h reaching or exceeding 80%? criterion not met

Is it the case that Cc1ccccc1Oc1cc(Cl)ccc1NS(=O)(=O)C(F)(F)F has Rhipicephalus sanguineus Mortality (%) 24 h reaching or exceeding 80%? criterion met

Is it the case that O=S(=O)(Nc1ccc(Cl)cc1Oc1ccc(F)cc1F)C(F)(F)F has Rhipicephalus sanguineus Mortality (%) 24 h reaching or exceeding 80%? criterion met

Is it the case that O=S(=O)(Nc1ccc(Cl)cc1Sc1ccc(F)cc1)C(F)(F)F has Rhipicephalus sanguineus Mortality (%) 24 h reaching or exceeding 80%? criterion met

Is it the case that O=S(=O)(Nc1ccc(Cl)cc1Sc1ccc(Cl)cc1)C(F)(F)F has Rhipicephalus sanguineus Mortality (%) 24 h reaching or exceeding 80%? criterion not met

* * *

Tested on: Brown Dog Tick (Rhipicephalus sanguineus)
protocol summary: Topical application on brown dog ticks, single dose screen (% mortality at 24 hours)
Type: in vivo
experimental context: adult brown dog ticks, topical 1 μL in acetone on abdomen, single dose 10 μg per tick
quantity measured: Rhipicephalus sanguineus Mortality (%) 24 h
Give the number; % is assumed, so skip it.

>  <compound>
O=S(=O)(Nc1ccc(Cl)cc1Sc1ccccc1F)C(F)(F)F [Compound 68]

>  <target>
Brown Dog Tick (Rhipicephalus sanguineus)

>  <units symbol>
%

>  <test result>
55

$$$$
>  <compound>
O=S(=O)(Nc1ccccc1Nc1ccccc1)C(F)(F)F [Compound 90]

>  <target>
Brown Dog Tick (Rhipicephalus sanguineus)

>  <units symbol>
%

>  <test result>
13

$$$$

Query C#CCN(c1ccc(Cl)cc1Oc1ccccc1F)S(=O)(=O)C(F)(F)F [Compound 85] yields Rhipicephalus sanguineus Mortality (%) 24 h of 5
